Origin of the recorded values: patent US20250228873A1

Study Target: PTPN12/PTP-PEST (Homo sapiens)
Construct: purchased Recation Biology Inc
Sequence (Q05209 whole entry): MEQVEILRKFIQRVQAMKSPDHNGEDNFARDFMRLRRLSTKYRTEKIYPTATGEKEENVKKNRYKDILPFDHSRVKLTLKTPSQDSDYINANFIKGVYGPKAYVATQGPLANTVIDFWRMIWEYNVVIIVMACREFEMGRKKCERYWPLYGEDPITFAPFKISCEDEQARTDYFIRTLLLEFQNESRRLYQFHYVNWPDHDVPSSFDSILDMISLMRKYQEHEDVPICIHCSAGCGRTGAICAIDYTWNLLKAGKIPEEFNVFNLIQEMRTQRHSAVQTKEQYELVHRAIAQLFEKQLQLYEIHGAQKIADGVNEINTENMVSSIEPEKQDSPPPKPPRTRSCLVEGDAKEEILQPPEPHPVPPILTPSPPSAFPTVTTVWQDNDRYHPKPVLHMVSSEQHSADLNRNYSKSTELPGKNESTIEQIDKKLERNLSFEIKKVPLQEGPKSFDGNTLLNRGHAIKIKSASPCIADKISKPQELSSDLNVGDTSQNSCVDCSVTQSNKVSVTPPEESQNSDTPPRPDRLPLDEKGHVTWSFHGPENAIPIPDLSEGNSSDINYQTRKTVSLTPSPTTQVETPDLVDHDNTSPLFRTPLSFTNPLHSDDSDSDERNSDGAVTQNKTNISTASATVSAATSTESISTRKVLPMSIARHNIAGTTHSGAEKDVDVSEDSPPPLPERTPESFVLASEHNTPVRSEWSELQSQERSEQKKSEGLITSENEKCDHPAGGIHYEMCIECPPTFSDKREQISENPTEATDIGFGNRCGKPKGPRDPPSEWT
Protocol: Phosphatase panel, DiFMUP fluorescence assay
Format: biochemical
Condition Details: Table 5C; read-out: Compound IC50 (M) PTPN12/PTP-PEST

Molecule	Unit Symbol	IC50
CC(C)[C@@H](CC[C@@H](C)[C@H]1CC[C@H]2[C@@H]3[C@H](O)C[C@H]4C[C@@H](NCCCNCCCCNCCCN)CC[C@]4(C)[C@H]3CC[C@]12C)OS(=O)(=O)O (single isomer, unassigned)	M	1.72e-06
CC(CCC[C@@H](C)[C@H]1CCC2C3C(CC[C@@]21C)[C@@]1(C)CC[C@H](NCCCNCCCCNCCCN)C[C@@H]1C[C@H]3O)C(=O)O (single isomer, unassigned)	M	8.61e-07
CCc1oc2cc(S(=O)(=O)Nc3ccc(S(=O)(=O)Nc4nccs4)cc3)ccc2c1C(=O)c1cc(Br)c(O)c(Br)c1 [PTP1B Inhibitor, reference compound]	M	2.99e-05

====

Study Target: PP1A (Homo sapiens, UniProt P62136)
Construct: purchased Recation Biology Inc
Sequence (P62136 whole entry): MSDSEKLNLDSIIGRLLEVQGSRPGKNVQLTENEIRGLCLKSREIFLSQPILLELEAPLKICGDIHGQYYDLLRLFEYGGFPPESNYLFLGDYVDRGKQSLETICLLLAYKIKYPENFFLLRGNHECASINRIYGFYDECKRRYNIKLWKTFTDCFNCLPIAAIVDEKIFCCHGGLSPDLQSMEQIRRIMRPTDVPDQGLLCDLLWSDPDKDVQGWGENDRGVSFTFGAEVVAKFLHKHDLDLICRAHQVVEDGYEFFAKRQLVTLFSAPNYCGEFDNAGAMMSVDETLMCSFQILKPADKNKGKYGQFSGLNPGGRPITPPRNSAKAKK
Protocol: Phosphatase panel, DiFMUP fluorescence assay
Assay type: biochemical
Condition Details: Table 18A; read-out: inhibitory activity PP1A
pIC50: −log10 of the molar value.
Quantity Kind: pIC50

Molecule	Result
CC(CCC[C@@H](C)[C@H]1CCC2C3C(CC(O)[C@@]21C)[C@@]1(C)CC[C@H](NCCCNCCCCN)C[C@@H]1C[C@H]3O)C(=O)O (single isomer, unassigned)	< 4.00

====

Study Target: Tyrosine-protein phosphatase non-receptor type 11 (Homo sapiens, UniProt Q06124)
Sequence (Q06124 247-517): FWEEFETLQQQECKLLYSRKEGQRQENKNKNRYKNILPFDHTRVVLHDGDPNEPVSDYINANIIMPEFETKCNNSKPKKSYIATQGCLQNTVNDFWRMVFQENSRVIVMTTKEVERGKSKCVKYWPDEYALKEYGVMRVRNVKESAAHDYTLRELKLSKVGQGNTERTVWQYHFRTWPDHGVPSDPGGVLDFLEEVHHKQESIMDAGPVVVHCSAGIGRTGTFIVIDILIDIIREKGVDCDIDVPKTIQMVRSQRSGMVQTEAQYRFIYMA

Compound	IC50
CC(CCC[C@@H](C)[C@H]1CCC2C3C(CC[C@@]21C)[C@@]1(C)CC[C@H](NCCCNCCCCNCCCN)C[C@@H]1C[C@H]3O)C(=O)O (single isomer, unassigned)	5 µM
CCc1oc2cc(S(=O)(=O)Nc3ccc(S(=O)(=O)Nc4nccs4)cc3)ccc2c1C(=O)c1cc(Br)c(O)c(Br)c1 [PTP1B Inhibitor, reference compound]	1.82 µM
CC(C)[C@@H](CC[C@@H](C)[C@H]1CC[C@H]2[C@@H]3[C@H](O)C[C@H]4C[C@@H](NCCCNCCCCNCCCN)CC[C@]4(C)[C@H]3CC[C@]12C)OS(=O)(=O)O (single isomer, unassigned)	0.375 µM

====

Study Target: PP2A Alpha/PP2R1A Complex (Homo sapiens, UniProt P67775)
Construct: purchased Recation Biology Inc
Sequence (P67775 whole entry): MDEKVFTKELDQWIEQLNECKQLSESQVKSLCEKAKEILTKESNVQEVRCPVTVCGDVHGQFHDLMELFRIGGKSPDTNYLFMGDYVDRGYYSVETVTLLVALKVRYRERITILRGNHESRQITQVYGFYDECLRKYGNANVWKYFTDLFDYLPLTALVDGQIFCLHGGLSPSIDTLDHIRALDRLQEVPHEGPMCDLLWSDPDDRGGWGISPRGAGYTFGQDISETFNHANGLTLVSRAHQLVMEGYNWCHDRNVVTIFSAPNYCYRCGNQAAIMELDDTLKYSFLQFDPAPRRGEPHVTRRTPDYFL
Sequence (P30153 whole entry partner): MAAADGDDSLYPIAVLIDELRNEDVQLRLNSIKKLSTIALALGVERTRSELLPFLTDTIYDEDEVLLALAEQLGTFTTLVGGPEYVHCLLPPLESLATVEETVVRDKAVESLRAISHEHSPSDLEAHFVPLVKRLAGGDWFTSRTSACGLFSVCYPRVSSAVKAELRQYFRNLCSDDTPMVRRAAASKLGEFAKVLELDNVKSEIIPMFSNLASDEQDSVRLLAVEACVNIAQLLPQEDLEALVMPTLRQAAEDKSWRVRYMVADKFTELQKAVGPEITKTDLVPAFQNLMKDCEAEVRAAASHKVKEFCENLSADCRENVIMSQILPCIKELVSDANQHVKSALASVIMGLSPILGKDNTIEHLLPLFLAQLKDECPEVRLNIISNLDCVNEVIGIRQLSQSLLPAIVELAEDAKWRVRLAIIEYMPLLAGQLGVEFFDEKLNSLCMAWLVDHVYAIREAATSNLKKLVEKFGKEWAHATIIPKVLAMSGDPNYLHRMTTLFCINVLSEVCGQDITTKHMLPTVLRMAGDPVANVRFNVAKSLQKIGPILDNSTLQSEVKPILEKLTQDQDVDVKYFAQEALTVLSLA
Protocol: Phosphatase panel, DiFMUP fluorescence assay
Assay type: biochemical
Condition Details: Table 18A; read-out: inhibitory activity PP2A Alpha/PP2R1A Complex
pIC50: −log10 of the molar value.

Molecule	pIC50
CC(CCC[C@@H](C)[C@H]1CCC2C3C(CC(O)[C@@]21C)[C@@]1(C)CC[C@H](NCCCNCCCCN)C[C@@H]1C[C@H]3O)C(=O)O (single isomer, unassigned)	5.42

====

Study Target: PTPRC/CD45 (Homo sapiens)
Construct: purchased Recation Biology Inc
Sequence (P08575 26-1306): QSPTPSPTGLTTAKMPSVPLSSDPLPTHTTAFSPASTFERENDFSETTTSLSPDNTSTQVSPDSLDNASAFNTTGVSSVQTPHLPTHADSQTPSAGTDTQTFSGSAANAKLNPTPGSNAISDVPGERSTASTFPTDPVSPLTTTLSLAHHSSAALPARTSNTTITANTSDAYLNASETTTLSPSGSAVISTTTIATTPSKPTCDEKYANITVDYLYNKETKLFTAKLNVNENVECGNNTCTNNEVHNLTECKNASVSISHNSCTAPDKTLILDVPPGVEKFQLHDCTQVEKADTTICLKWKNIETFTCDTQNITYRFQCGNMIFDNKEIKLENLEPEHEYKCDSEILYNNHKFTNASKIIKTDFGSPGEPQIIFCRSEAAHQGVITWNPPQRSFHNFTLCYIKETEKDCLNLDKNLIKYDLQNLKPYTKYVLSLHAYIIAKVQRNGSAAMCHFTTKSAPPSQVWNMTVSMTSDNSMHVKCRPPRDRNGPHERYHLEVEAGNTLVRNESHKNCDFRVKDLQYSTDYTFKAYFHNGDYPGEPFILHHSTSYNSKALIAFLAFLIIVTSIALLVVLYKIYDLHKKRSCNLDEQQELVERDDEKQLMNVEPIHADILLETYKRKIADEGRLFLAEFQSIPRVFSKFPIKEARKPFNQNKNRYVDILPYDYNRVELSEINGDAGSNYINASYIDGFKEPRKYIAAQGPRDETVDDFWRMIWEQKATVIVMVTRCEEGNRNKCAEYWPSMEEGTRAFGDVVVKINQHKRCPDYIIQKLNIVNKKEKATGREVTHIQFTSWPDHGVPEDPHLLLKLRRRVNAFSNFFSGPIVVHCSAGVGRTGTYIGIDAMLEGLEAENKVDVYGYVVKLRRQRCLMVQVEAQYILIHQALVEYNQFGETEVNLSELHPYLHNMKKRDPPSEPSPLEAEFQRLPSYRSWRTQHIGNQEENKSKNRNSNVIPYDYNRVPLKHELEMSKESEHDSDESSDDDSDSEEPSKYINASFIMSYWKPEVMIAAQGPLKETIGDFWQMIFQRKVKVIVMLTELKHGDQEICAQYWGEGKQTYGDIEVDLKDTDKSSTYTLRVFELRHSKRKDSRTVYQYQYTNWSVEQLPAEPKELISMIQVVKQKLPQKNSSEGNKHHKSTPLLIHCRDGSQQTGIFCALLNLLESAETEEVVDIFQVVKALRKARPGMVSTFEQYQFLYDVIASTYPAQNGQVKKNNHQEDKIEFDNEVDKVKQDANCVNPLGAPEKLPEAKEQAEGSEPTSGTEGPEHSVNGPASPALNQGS
Protocol: Phosphatase panel, DiFMUP fluorescence assay
Assay type: biochemical
Condition Details: Table 19A; read-out: inhibitory activity PTPRC/CD45
Quick list: IC50 per entry.
Quantity Kind: IC50 (µM)

Molecule	Quantity Kind	Quantitative Result
CCc1oc2cc(S(=O)(=O)Nc3ccc(S(=O)(=O)Nc4nccs4)cc3)ccc2c1C(=O)c1cc(Br)c(O)c(Br)c1 [PTP1B Inhibitor, reference compound]	IC50	26.6
CC(CCC[C@@H](C)[C@H]1CCC2C3C(CC[C@@]21C)[C@@]1(C)CC[C@H](NCCCNCCCCN)C[C@@H]1C[C@H]3O)C(=O)O (single isomer, unassigned)	IC50	1.22
CC(CCC[C@@H](C)[C@H]1CCC2C3C(CC[C@@]21C)[C@@]1(C)CC[C@H](NCCCNCCCCNCCCN)C[C@@H]1C[C@H]3O)C(=O)O (single isomer, unassigned)	IC50	0.517
